All values here come from paper PMC5540273.

test system: MST1R; conditions: concentration: 1 μM, replicates: in singlicate; n = 1;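 note: KINOMEscan kinase panel screen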
Listing of entries alongside the reported %Inh.
Could you give me the number in %? Just the number is fine.

In the examples that follow, each entry is paired with its recorded %Inh.
1. CN1C(=O)C(Nc2ccc(Cl)c(C(=O)O)c2)=C(c2ccc(Cl)cc2)C1=O 19
2. COC(=O)c1c(-c2ccccc2)c2cc(OC)ccc2c(=O)n1Cc1ccccc1 38
3. Cn1cncc1-c1ccc2ncnc(Nc3ccc(OCc4ccccc4)cc3)c2c1 29
4. COc1cccc(-c2cc(-c3c[nH]nc3-c3ccccn3)ccn2)c1 35

Turning now to a further compound:
Provide measured %Inh value, entry: `O=C(O)COc1ncnc2cc(-c3ccc4[nH]ncc4c3)sc12`
25

---

test system: MST1R; conditions: concentration: 1 μM, replicates: in singlicate; n = 1
MEASUREMENT_NAME: %Inh (%)
Could you give me the number in %? Just the number is fine.

MOLECULE	UNIT_SYMBOL	VALUE
Cc1ccccc1-n1cnc2c(N)ncnc21 [SKF-97510]	%	0
CS(=O)(=O)c1ccc(-c2c(-c3ncn[nH]3)sc(N3CCOCC3)c2C#N)cc1	%	29
Cn1ccc2ncnc(Oc3cccc(C(=O)Nc4ccccc4)c3)c21	%	11

System MST1R. Read-out %Inh. Item O=S(=O)(c1ccc(-c2ccnc3[nH]ccc23)cc1)N1CCCC1 [GSK846226] . Report value.
16

System MST1R. Read-out %Inh. Item Cc1cccc(-c2nc(Nc3cccc(C(N)=O)c3)c3ccccc3n2)n1 [GW876019] . Report value.
0

System MST1R. Read-out %Inh. Item Cc1ccc(-c2cc(-c3c[nH]nc3-c3ccccn3)ccn2)cc1 [GW684088] . Report value.
13

System MST1R. Read-out %Inh. Item Clc1cc(Cl)cc(Nc2ccnc(Nc3cc(Cl)cc(Cl)c3)n2)c1 [GSK175726] . Report value.
14

System MST1R. Read-out %Inh. Item Cc1cccc(-c2nc(Nc3ccncc3)c3ccccc3n2)n1 [GW855857] . Report value.
0

System MST1R. Read-out %Inh. Item `Cn1ccc2ncnc(Oc3ccc(Nc4nc5ccccc5[nH]4)cc3)c21` . Report value.
18

System MST1R. Read-out %Inh. Item `CC(C)(C)c1ccc(C(=O)Nc2cn3cc(Cl)ccc3n2)cc1` . Report value.
5

System MST1R. Read-out %Inh. Item Cc1c(Cn2ccn3c(=O)cc(N4CCOCC4)nc23)cccc1C(F)(F)F [GSK2289044] . Report value.
27

System MST1R. Read-out %Inh. Item Cl.NC(=O)c1cccc(Nc2nccc(Nc3ccc(Oc4cccc(Cl)c4)c(Cl)c3)n2)c1 [GW659008] . Report value.
0

System MST1R. Read-out %Inh. Item COc1ccc2nc(-c3cccc(C)n3)nc(Nc3ccncc3)c2c1 [GSK204919] . Report value.
26

System MST1R. Read-out %Inh. Item Cc1cccc(-c2nc(Nc3ccc4[nH]ncc4c3)c3ccccc3n2)n1 [GW857175] . Report value.
0

System MST1R. Read-out %Inh. Item Cc1ccc(C(=O)Nc2ccc(Nc3ccnc4cc(-c5ccccn5)ccc34)cc2O)cc1.Cl [GW440146] . Report value.
52

System MST1R. Read-out %Inh. Item CCn1c(-c2cccnc2O)nc2cnccc21 [SB-736715] . Report value.
0

System MST1R. Read-out %Inh. Item O=C1NC(=O)C(N2CCc3ccccc32)=C1c1ccccc1Cl [SB-373598] . Report value.
7

System MST1R. Read-out %Inh. Item Cc1cc(N2Cc3ccccc3C2)nc(Nc2ccc(S(=O)(=O)N3CCOCC3)cc2)n1.Cl [GSK1669917] . Report value.
0

System MST1R. Read-out %Inh. Item Cc1ccc(NC(=O)Nc2cccc(Cl)c2)cc1-c1ccc(C(=O)Nc2ccncc2)cc1 [GSK1398468] . Report value.
34

System MST1R. Read-out %Inh. Item Cl.c1ccc(-c2n[nH]cc2-c2ccnc(-c3ccc(CN4CCOCC4)cc3)c2)nc1 [GW776245] . Report value.
0

---

test system: CDKL3; settings: concentration: 1 μM, replicates: in singlicate; n = 1
Listing of entries alongside the reported %Inh.
Could you give me the number in %? Just the number is fine.

In the examples that follow, each entry is paired with its recorded %Inh.
1) Cc1ccc(-c2cc(-c3c[nH]nc3-c3ccccn3)ccn2)cc1 0
2) O=c1cc(N2CCOCC2)nc2n(Cc3cccc(Cl)c3Cl)ccn12 0
3) O=C(Nc1n[nH]c2cc(-c3cccc(F)c3F)ccc12)C1CC1 48
4) O=C(Nc1n[nH]c2nc(-c3nccs3)c(Br)cc12)C1CC1 0
5) CC(=O)Nc1nc2cnc(Nc3cc(NC(=O)c4cccc(CCC#N)c4)ccc3C)nc2s1 0
6) Cc1c(O)cccc1Nc1ccnc2ccc(C(F)(F)F)cc12.Cl 0
7) CSc1nn2c(=O)cc(N3CCOCC3)nc2n1Cc1cccc(C(F)(F)F)c1C 0
8) Cc1ccc(NC(=O)Nc2cccc(Cl)c2)cc1-c1ccc(C(=O)Nc2ccncc2)cc1 0

Provide measured %Inh value, entry: `Cc1csc(-c2nc(Nc3ccncc3)c3ccccc3n2)n1`
19

Provide measured %Inh value, entry: `CC(C)(C)c1ccc(C(=O)Nc2cn3cc(Cl)ccc3n2)cc1`
0

Provide measured %Inh value, entry: `COc1ccc2nc(-c3cccc(C)n3)nc(Nc3ccncc3)c2c1`
0

---

tested on: MUSK; details: concentration: 1 μM, replicates: in singlicate; n = 1
Kindly return Yes if reported %Inh is no lower than 9%; return No if it is lower.

Study these solved cases before continuing.
MOLECULE	ASSIGNED_CLASS
COc1ccc(Nc2nccc(NCCNC(=O)Nc3ccccc3F)n2)cc1	Yes
O=C(Nc1ccc2c(c1)OCO2)NC1CCN(c2ccnc(Nc3ccc(F)cc3)n2)C1 (stereo not drawn)	No
Nc1ncnc2[nH]c(-c3ccccc3)nc12	Yes
CCn1c(-c2ccccn2)nc2cnccc21	No
Cc1cc(-c2ccc3c(c2)CC[C@@H](N[C@@H](C)c2ccccc2)C3)cnc1N.Cl	Yes
Cl.Oc1ccc(-c2nc(-c3ccccc3)[nH]c2-c2ccncc2)cc1	No
Cc1c(O)cccc1Nc1ccnc2ccc(C(F)(F)F)cc12.Cl	No

Now for a further molecule.
Is %Inh for `COc1cccc(-c2cc(-c3c[nH]nc3-c3ccccn3)ccn2)c1` at or above 9%?
No

---

tested on: GRK7; details: concentration: 1 μM, replicates: in singlicate; n = 1
MEASUREMENT_NAME: %Inh (%)
Could you give me the number in %? Just the number is fine.

COMPOUND	MEASUREMENT_NAME	UNIT_SYMBOL	VALUE
COc1ccc(Nc2nccc(NCCNC(=O)Nc3ccccc3F)n2)cc1 [GSK1379901]	%Inh	%	0
CC(C)(C)c1ccc(C(=O)Nc2cn3cc(Cl)ccc3n2)cc1	%Inh	%	0
Cl.Oc1ccc(-c2nc(-c3ccccc3)[nH]c2-c2ccncc2)cc1 [SB-428218]	%Inh	%	0
Nc1nc(-c2nccs2)c(-c2ccnc3ccccc23)s1 [GW693542]	%Inh	%	0
Cc1cc(N2Cc3ccccc3C2)nc(Nc2ccc(S(=O)(=O)N3CCOCC3)cc2)n1.Cl [GSK1669917]	%Inh	%	0
Cc1ccc(C(=O)Nc2ccc(Nc3ccnc4cc(-c5ccccn5)ccc34)cc2O)cc1.Cl [GW440146]	%Inh	%	0

Provide measured %Inh value, entry: Cc1cccc(-c2nc(C)cc(Nc3ccncc3)n2)n1 [GSK257997]
0

Provide measured %Inh value, entry: `Fc1cccc(COc2nnc(-c3ccc4c(c3)CCO4)o2)c1`
8

Provide measured %Inh value, entry: CSc1nn2c(=O)cc(N3CCOCC3)nc2n1Cc1cccc(C(F)(F)F)c1C [GSK2363608]
0

Provide measured %Inh value, entry: CN1C(=O)C(Nc2ccc(Cl)c(C(=O)O)c2)=C(c2ccc(Cl)cc2)C1=O [SB-404290]
0

Provide measured %Inh value, entry: Cc1ccc(-c2cc(-c3c[nH]nc3-c3ccccn3)ccn2)cc1 [GW684088]
0

---

system: SGK3; conditions: concentration: 1 μM, replicates: in singlicate; n = 1
MEASUREMENT_NAME: %Inh (%)
Could you give me the number in %? Just the number is fine.

In the examples that follow, each entry is paired with its recorded %Inh.
MOLECULE	%Inh (%)
CN1C(=O)C(Nc2ccc(Cl)c(C(=O)O)c2)=C(c2ccc(Cl)cc2)C1=O	19
COc1ccc(CNC(=O)NC2CCN(c3ccnc(Nc4cc(OC)c(OC)c(OC)c4)n3)C2)cc1 (centres unmarked)	0
CCn1c(-c2ccccn2)nc2cnccc21	0
CC1=C(C(=O)Nc2cc3cn[nH]c3cc2F)C(c2ccc(C(F)(F)F)cc2)CC(=O)N1 (centres unmarked)	4
Cc1ccc(NC(=O)Nc2cccc(Cl)c2)cc1-c1ccc(C(=O)Nc2ccncc2)cc1	22
Nc1ncnc2[nH]c(-c3ccccc3)nc12	18
Cc1cc(NCC(c2ccccc2)c2ccccc2)nc(NCc2ccc(C(F)(F)F)cc2)n1	6
COc1ccc2nc(-c3cccc(C)n3)nc(Nc3ccncc3)c2c1	0
O=C(O)COc1ncnc2cc(-c3ccc4[nH]ncc4c3)sc12	35
Cn1ccc2ncnc(Oc3cccc(C(=O)Nc4ccccc4)c3)c21	26

System SGK3. Read-out %Inh. Item Cc1nnc(-c2ccc3occ(-c4ccc(S(C)=O)cc4)c3c2)[nH]1 (centres unmarked) . Report value.
17

System SGK3. Read-out %Inh. Item COc1cc2ncn(-c3cc(OCC4CCCO4)c(C(N)=O)s3)c2cc1OC (centres unmarked) . Report value.
0
